EXPERIMENTAL_TARGET: EcLonA (Escherichia coli, UniProt P0A9M0)
Construct: gene lon; EcLonA-H6 (C-terminal hexahistidine tag)
Sequence (P0A9M0 2-784): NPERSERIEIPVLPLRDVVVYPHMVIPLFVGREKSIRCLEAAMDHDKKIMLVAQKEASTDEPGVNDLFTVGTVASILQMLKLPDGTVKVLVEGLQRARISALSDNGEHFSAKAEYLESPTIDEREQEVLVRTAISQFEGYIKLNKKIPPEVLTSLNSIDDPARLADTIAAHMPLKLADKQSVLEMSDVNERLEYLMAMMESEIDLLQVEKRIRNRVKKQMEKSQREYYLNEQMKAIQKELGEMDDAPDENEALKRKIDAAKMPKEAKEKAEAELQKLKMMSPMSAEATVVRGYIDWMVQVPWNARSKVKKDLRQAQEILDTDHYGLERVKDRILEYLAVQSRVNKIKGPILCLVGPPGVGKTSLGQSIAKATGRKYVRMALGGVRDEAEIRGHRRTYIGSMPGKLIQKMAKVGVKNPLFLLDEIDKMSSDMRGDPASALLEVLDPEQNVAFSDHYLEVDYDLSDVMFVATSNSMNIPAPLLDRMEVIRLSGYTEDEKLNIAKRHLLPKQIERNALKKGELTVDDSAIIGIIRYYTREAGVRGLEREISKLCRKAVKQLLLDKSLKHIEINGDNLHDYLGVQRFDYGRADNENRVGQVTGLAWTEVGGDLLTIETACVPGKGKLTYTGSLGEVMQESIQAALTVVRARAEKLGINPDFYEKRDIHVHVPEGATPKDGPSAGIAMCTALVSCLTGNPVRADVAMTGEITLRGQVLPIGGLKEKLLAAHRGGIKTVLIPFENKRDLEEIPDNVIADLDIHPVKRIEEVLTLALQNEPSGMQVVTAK
EXPERIMENT_NOTES: inhibition of PepTBE hydrolysis (peptidase assay, DTDP detection); also suppresses β-casein proteolysis
Type: biochemical
QUANTITY_MEASURED: IC50 (nM)
Answer in nM, number only, no unit symbol.

Problem: Please give the documented IC50 of CC(C)C[C@H](NC(=O)[C@H](Cc1ccccc1)NC(=O)c1cnccn1)B(O)O
Result: 50

###

EXPERIMENTAL_TARGET: BsLonBA (Bacillus subtilis, UniProt P42425)
Sequence (P42425 whole entry): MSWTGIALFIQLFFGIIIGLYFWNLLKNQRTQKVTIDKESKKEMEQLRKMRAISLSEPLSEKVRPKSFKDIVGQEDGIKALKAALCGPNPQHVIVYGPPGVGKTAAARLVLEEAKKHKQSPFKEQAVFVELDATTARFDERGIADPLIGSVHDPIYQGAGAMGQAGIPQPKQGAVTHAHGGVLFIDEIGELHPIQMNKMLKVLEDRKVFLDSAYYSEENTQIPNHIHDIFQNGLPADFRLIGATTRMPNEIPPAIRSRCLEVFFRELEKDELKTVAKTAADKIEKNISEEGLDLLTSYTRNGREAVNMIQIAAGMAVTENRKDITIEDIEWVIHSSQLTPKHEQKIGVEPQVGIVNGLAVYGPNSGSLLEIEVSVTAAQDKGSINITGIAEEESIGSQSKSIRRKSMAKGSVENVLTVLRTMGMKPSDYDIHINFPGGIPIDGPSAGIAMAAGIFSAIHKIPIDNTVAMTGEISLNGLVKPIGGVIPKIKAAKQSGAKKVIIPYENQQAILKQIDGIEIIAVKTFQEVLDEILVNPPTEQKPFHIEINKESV
QUANTITY_MEASURED: IC50 (nM)
Answer in nM, number only, no unit symbol.

Problem: For BsLonBA (Bacillus subtilis, UniProt P42425), give IC50 of the listed compound: CC(C)C[C@H](NC(=O)[C@H](Cc1ccccc1)NC(=O)c1cnccn1)B(O)O
Result: 1150
